System: P 388 mouse leukaemia
METHOD_NOTES: P 388 leukaemia test (life span of i.p. transplanted mice)
Assay type: in vivo, BDF hybrid mice
PARTICULARS: Mus musculus, P388, ip, mean length of life; 8 × 4.0 mg./kg. i.p.; read-out: Treated/Control
response vs control in vivo at 4 mg/kg: recorded values
MEASUREMENT_NAME: response vs control in vivo at 4 mg/kg

- MOLECULE: "C=CCOCN1c2cc(OC)c(C3(C(=O)OC)CC4CN(CCc5c3[nH]c3ccccc53)CC(O)(CC)C4)cc2C23CCN4CC=CC(CC)(C(OC(C)=O)C(O)(C(=O)OC)C12)C43 (stereo not drawn)"
  TARGET_ENTITY: "P 388 mouse leukaemia"
  MEASUREMENT_NAME: "response vs control in vivo at 4 mg/kg"
  OBS_VALUE: "200%"
- MOLECULE: "CCC1(O)CC2CN(CCc3c([nH]c4ccccc34)C(C(=O)OC)(c3cc4c(cc3OC)N(COC3CCCCC3)C3C(O)(C(=O)OC)C(OC(C)=O)C5(CC)C=CCN6CCC43C65)C2)C1 (stereo not drawn)"
  TARGET_ENTITY: "P 388 mouse leukaemia"
  MEASUREMENT_NAME: "response vs control in vivo at 4 mg/kg"
  OBS_VALUE: "181%"
- MOLECULE: "CCOCN1c2cc(OC)c(C3(C(=O)OC)CC4CN(CCc5c3[nH]c3ccccc53)CC(O)(CC)C4)cc2C23CCN4CC=CC(CC)(C(OC(C)=O)C(O)(C(=O)OC)C12)C43 (stereo not drawn) [N-Desmethyl-N-(ethoxymethyl)-vinblastine]"
  TARGET_ENTITY: "P 388 mouse leukaemia"
  MEASUREMENT_NAME: "response vs control in vivo at 4 mg/kg"
  OBS_VALUE: "167%"

====

Tested on: P 388 mouse leukaemia
METHOD_NOTES: P 388 leukaemia test (life span of i.p. transplanted mice)
Assay type: in vivo, BDF hybrid mice
PARTICULARS: Mus musculus, P388, ip, mean length of life; 8 × 4.0 mg./kg. i.p.; read-out: Treated/Control
Protocol: The effect of the new compounds on intraperitoneally transplantable tumors (P 388 mouse leukaemia and NK/Ly ascites lymphoma) is described hereinbelow. The P 388 leukaemia test was performed on BDF hybrid mice. The tests were carried out on groups of six mice and 10^6 tumor cells/animal were transplanted intraperitoneally. Administration of the test compounds was started in the 24th hour after transplantation. […]
MEASUREMENT_NAME: response vs control in vivo at 4 mg/kg (%)

- COMPOUND: "CCC1(O)CC2CN(CCc3c([nH]c4ccccc34)C(C(=O)OC)(c3cc4c(cc3OC)N(COCC(C)C)C3C(O)(C(=O)OC)C(OC(C)=O)C5(CC)C=CCN6CCC43C65)C2)C1 (centres unmarked)"
  MEASUREMENT_NAME: "response vs control in vivo at 4 mg/kg"
  VALUE_UNITS: "%"
  OBS_VALUE: 194
- COMPOUND: "CCCOCN1c2cc(OC)c(C3(C(=O)OC)CC4CN(CCc5c3[nH]c3ccccc53)CC(O)(CC)C4)cc2C23CCN4CC=CC(CC)(C(OC(C)=O)C(O)(C(=O)OC)C12)C43 (centres unmarked)"
  MEASUREMENT_NAME: "response vs control in vivo at 4 mg/kg"
  VALUE_UNITS: "%"
  OBS_VALUE: 171
- COMPOUND: "CCC1(O)CC2CN(CCc3c([nH]c4ccccc34)C(C(=O)OC)(c3cc4c(cc3OC)N(COCc3ccccc3)C3C(O)(C(=O)OC)C(OC(C)=O)C5(CC)C=CCN6CCC43C65)C2)C1 (centres unmarked)"
  MEASUREMENT_NAME: "response vs control in vivo at 4 mg/kg"
  VALUE_UNITS: "%"
  OBS_VALUE: 178
- COMPOUND: "CCCCCCCOCN1c2cc(OC)c(C3(C(=O)OC)CC4CN(CCc5c3[nH]c3ccccc53)CC(O)(CC)C4)cc2C23CCN4CC=CC(CC)(C(OC(C)=O)C(O)(C(=O)OC)C12)C43 (centres unmarked)"
  MEASUREMENT_NAME: "response vs control in vivo at 4 mg/kg"
  VALUE_UNITS: "%"
  OBS_VALUE: 181
- COMPOUND: "CCC1(O)CC2CN(CCc3c([nH]c4ccccc34)C(C(=O)OC)(c3cc4c(cc3OC)N(COC)C3C(O)(C(=O)OC)C(OC(C)=O)C5(CC)C=CCN6CCC43C65)C2)C1 (centres unmarked)"
  MEASUREMENT_NAME: "response vs control in vivo at 4 mg/kg"
  VALUE_UNITS: "%"
  OBS_VALUE: 171
